system: NSA mice; experiment: Hypothermia study (block of CP 55,940-induced hypothermia); assay type: in vivo; parameters: unit not given here; settings: 3 mg/kg
Cut-off 20 on Hypothermia 3 mg/kg, inclusive. At or above means Condition met; below means Condition not met.

>  <compound>
CCCCNC(=O)c1ccc2c(c1)N=C(c1cccc(Cl)c1)c1cc(F)ccc1S2 [drawing 1579]

>  <discrete label>
Condition not met

$$$$
>  <compound>
O=C(NN1CCCCC1)c1ccc2c(c1)N=C(c1ccc(Cl)cc1)c1ccccc1S2 [drawing 1575]

>  <discrete label>
Condition met

$$$$
>  <compound>
O=C(NN1CCCCC1)c1ccc2c(c1)N=C(C1CCCCC1)c1ccccc1S2 [drawing 1592]

>  <discrete label>
Condition met

$$$$
>  <compound>
CC(C)CCNC(=O)c1ccc2c(c1)N=C(c1cccc(Cl)c1)c1ccccc1S2 [drawing 1564]

>  <discrete label>
Condition met

$$$$
>  <compound>
O=C(NCCc1ccncc1)c1ccc2c(c1)N=C(c1ccc(Cl)c(Cl)c1)c1ccccc1S2 [drawing 1591]

>  <discrete label>
Condition met

$$$$
>  <compound>
O=C(NCc1ccc(F)cc1)c1ccc2c(c1)N=C(c1ccc(Cl)cc1)c1ccccc1[S+]2[O-] (stereo not drawn) [drawing 1645]

>  <discrete label>
Condition met

$$$$
>  <compound>
CC(C)CCNC(=O)c1ccc2c(c1)N=C(c1ccccn1)c1ccccc1S2 [drawing 1649]

>  <discrete label>
Condition met

$$$$
>  <compound>
O=C(NCCC(F)(F)F)c1ccc2c(c1)N=C(c1ccc(Cl)s1)c1ccccc1S2 [drawing 1624]

>  <discrete label>
Condition met

$$$$
>  <compound>
O=C(NCc1cccs1)c1ccc2c(c1)N=C(c1ccccc1F)c1ccccc1S2 [drawing 1623]

>  <discrete label>
Condition not met

$$$$
>  <compound>
O=C(NCCCC(F)(F)F)c1ccc2c(c1)N=C(c1ccc(Cl)cc1F)c1ccccc1S2 [drawing 1552]

>  <discrete label>
Condition met

$$$$
>  <compound>
O=C(NCc1ccco1)c1ccc2c(c1)N=C(c1cccc(F)c1)c1ccccc1S2 [drawing 1631]

>  <discrete label>
Condition met

$$$$
>  <compound>
O=C(NCCCC(F)(F)F)c1ccc2c(c1)N=C(c1ccc(Cl)s1)c1ccccc1S2 [drawing 1554]

>  <discrete label>
Condition met

$$$$
>  <compound>
CC(C)CNC(=O)c1ccc2c(c1)N=C(c1ccc(Cl)c(Cl)c1)c1ccccc1S2 [drawing 1570]

>  <discrete label>
Condition met

$$$$
>  <compound>
O=C(NCc1cccnc1)c1ccc2c(c1)N=C(c1cccc(F)c1)c1ccccc1S2 [drawing 1621]

>  <discrete label>
Condition not met

$$$$
>  <compound>
O=C(NCc1ccco1)c1ccc2c(c1)N=C(c1ccc(F)cc1)c1ccccc1S2 [drawing 1553]

>  <discrete label>
Condition met

$$$$
>  <compound>
CCCCNC(=O)c1ccc2c(c1)N=C(c1ccc(Cl)cc1)c1ccccc1S2 [drawing 1560]

>  <discrete label>
Condition met

$$$$
>  <compound>
COc1cccc(C2=Nc3cc(C(=O)NC4CCC(F)(F)CC4)ccc3Sc3ccccc32)n1 [drawing 1572]

>  <discrete label>
Condition not met

$$$$
>  <compound>
O=C(NCc1ccco1)c1ccc2c(c1)N=C(c1ccc(Cl)cc1)c1ccccc1S2 [drawing 1650]

>  <discrete label>
Condition met

$$$$
>  <compound>
O=C(NCc1ccc(F)cc1)c1ccc2c(c1)N=C(c1ccc(Cl)cc1)c1ccccc1S2 [drawing 1630]

>  <discrete label>
Condition met

$$$$
>  <compound>
O=C(NCc1cccs1)c1ccc2c(c1)N=C(c1cccc(Cl)c1)c1ccccc1S2 [drawing 1622]

>  <discrete label>
Condition met

$$$$
>  <compound>
O=C(NCc1cccnc1)c1ccc2c(c1)N=C(c1ccc(Cl)c(Cl)c1)c1ccccc1S2 [drawing 1565]

>  <discrete label>
Condition not met

$$$$
>  <compound>
O=C(NN1CCCCC1)c1ccc2c(c1)N=C(c1ccc(Cl)s1)c1ccccc1S2 [drawing 1561]

>  <discrete label>
Condition met

$$$$
>  <compound>
Cc1ccc(CNC(=O)c2ccc3c(c2)N=C(c2ccc(Cl)s2)c2ccccc2S3)o1 [drawing 1594]

>  <discrete label>
Condition not met

$$$$
>  <compound>
O=C(NCc1ccco1)c1ccc2c(c1)N=C(c1ccc(Cl)s1)c1ccccc1S2 [drawing 1557]

>  <discrete label>
Condition met

$$$$
>  <compound>
CCCNC(=O)c1ccc2c(c1)N=C(c1ccc(Cl)cc1)c1ccccc1S2 [drawing 1588]

>  <discrete label>
Condition met

$$$$
>  <compound>
COc1ccc(C2=Nc3cc(C(=O)NCC(C)C)ccc3Sc3ccccc32)cc1 [drawing 1599]

>  <discrete label>
Condition met

$$$$
>  <compound>
O=C(NCc1ccco1)c1ccc2c(c1)N=C(c1cccc(Cl)c1)c1ccccc1S2 [drawing 1581]

>  <discrete label>
Condition met

$$$$
>  <compound>
C[C@@H]1CCC[C@H](C)N1NC(=O)c1ccc2c(c1)N=C(c1cccc(Cl)c1)c1ccccc1S2 [drawing 1605]

>  <discrete label>
Condition not met

$$$$
>  <compound>
CCCCNC(=O)c1ccc2c(c1)N=C(c1ccc(Br)cn1)c1ccccc1S2 [drawing 1555]

>  <discrete label>
Condition met

$$$$
>  <compound>
CCCCNC(=O)c1ccc2c(c1)N=C(c1ccc(Cl)s1)c1ccccc1S2 [drawing 1568]

>  <discrete label>
Condition met

$$$$
>  <compound>
CC(C)CNC(=O)c1ccc2c(c1)N=C(c1ccc(Cl)cc1)c1ccccc1S2 [drawing 1634]

>  <discrete label>
Condition met

$$$$
>  <compound>
O=C(NN1CCCCC1)c1ccc2c(c1)N=C(c1ccc(F)cc1)c1ccccc1S2 [drawing 1582]

>  <discrete label>
Condition met

$$$$
>  <compound>
CCCCNC(=O)c1ccc2c(c1)N=C(c1ccc(Cl)s1)c1ccc(Cl)cc1S2 [drawing 1589]

>  <discrete label>
Condition not met

$$$$

Data provenance: patent US20080090805A1
